Sourced from ChEMBL document CHEMBL5500411

Consider the following molecules and their measured inhibition readings.
# System: Epidermal growth factor receptor (Homo sapiens), P00533 [L858R,T790M]
# Sequence (P00533 whole entry T790M/L858R, looked up): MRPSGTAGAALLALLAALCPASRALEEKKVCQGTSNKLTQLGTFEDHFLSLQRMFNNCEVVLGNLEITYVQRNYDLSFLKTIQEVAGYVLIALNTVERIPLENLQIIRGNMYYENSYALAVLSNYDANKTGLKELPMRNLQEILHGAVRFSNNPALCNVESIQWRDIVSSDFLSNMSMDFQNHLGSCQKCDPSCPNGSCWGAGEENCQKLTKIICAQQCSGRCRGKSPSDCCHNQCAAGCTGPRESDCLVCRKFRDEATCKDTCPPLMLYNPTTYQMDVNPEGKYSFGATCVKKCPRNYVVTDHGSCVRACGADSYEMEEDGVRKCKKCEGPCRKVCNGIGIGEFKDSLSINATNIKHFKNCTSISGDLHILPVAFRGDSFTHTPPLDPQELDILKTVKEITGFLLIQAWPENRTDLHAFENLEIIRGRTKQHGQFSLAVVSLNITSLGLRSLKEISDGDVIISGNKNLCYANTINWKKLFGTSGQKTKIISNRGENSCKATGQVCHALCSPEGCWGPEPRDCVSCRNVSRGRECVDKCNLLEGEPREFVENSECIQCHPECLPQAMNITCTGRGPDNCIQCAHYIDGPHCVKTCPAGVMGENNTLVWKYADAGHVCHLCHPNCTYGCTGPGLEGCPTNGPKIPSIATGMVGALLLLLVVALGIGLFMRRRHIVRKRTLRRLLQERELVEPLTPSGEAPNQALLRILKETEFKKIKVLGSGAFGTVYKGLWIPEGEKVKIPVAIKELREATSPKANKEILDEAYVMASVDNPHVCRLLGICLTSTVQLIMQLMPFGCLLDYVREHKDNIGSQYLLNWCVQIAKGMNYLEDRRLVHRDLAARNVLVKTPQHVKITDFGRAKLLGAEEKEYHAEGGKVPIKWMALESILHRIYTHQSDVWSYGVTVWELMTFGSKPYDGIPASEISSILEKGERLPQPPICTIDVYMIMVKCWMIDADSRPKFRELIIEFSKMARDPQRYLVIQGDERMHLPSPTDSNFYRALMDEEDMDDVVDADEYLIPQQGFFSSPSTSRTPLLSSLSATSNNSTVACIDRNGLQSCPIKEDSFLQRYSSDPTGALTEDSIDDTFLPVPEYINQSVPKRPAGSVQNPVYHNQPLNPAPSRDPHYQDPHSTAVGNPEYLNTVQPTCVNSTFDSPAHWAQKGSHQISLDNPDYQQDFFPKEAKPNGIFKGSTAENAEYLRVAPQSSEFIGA
# PROCEDURE TEXT: Inhibition of EGFR T790M/L858R double mutant (unknown origin) at 1 uM by kinase Glo assay relative to control

Examples with their reported inhibition follow.
stdin: Give the reported value of inhibition for this record: Nc1cccc(-c2c(-c3ccccc3)oc3ncnc(Oc4ccc(NC(=O)C5(C(=O)Nc6ccc(F)cc6)CC5)cc4)c23)c1
stdout: -9%

stdin: Give the reported value of inhibition for this record: Nc1cccc(-c2c(-c3ccccc3)oc3ncnc(Nc4ccc(NC(=O)C5(C(=O)Nc6ccc(F)cc6)CC5)cc4)c23)c1
stdout: -4%

stdin: Give the reported value of inhibition for this record: Nc1cccc(-c2c(-c3ccccc3)oc3ncnc(Oc4ccc(NC(=S)NC(=O)Cc5ccccc5)cc4)c23)c1
stdout: -6%

stdin: Give the reported value of inhibition for this record: O=C(Nc1ccc(F)cc1)C1(C(=O)Nc2ccc(Oc3ncnc4oc(-c5ccccc5)c(-c5ccccc5)c34)cc2)CC1
stdout: 2%

More entries:
stdin: Give the reported value of inhibition for this record: O=C(Nc1ccc(F)cc1)C1(C(=O)Nc2ccc(Oc3ncnc4oc(-c5ccccc5)cc34)cc2)CC1
stdout: 1%
